Sourced from the supplement of paper PMC9170038

Tested on: MS2 coat protein
Test: apparent KD of MS2 coat protein, switch ON state; designed switch direction (-1 OFF switch, 1 ON switch): 1; higher = weaker reporter binding
Conditions: FMN input: 0 or 200 uM; Eterna round: R93 (includes R88 designs)
measured_endpoint: apparent KD of MS2 coat protein

Solved entries (count: 10):
{"columns": ["residue_codes", "apparent KD of MS2 coat protein"],
 "data": [
  ["AAGAAACAUGAGGAUCACCCAUGUGAGAUAAACACAGGAUAUGCGAAAAGAAAUAAAUAAGCAGAAGGGUGAAGAA [Mat - Same State 1 - Tesla mod - 70]", "26.4 nM"],
  ["AAAUAAAUGACUAAGGAUAUAUUAGAGAAAACAUGAGGAUCACCCAUGUAAUAAUAAAAAGGGUGAUAGAAGGUAGUCAACAAAC [74%, More Paria 4]", "132 nM"],
  ["AUAAAACAUGAGGAUCACCCAUGUAGAAAUAUGGGAGGAUAUACUAGAUCGAAAGAUCUAGUAGAAGGCCUUUAUG [JL Mod of Eli 5]", "45.4 nM"],
  ["AAAAGACAUGAGGAUCACCCAUGUAAAAACUUGGGAGGAUAUGCUUGGAAAACAUGCUAUGCAGAAGGCUCUAGUC [SS1 - 14]", "78.3 nM"],
  ["AAAAAACAUGAGGAUCACCCAUGUGAAAAUAUGGGAGGAUAUACAAAGACGAGAGUCAAAGUAGAAGGCCUAAAAA [Mat - Same State 1 - Eli mod - D87]", "26.6 nM"],
  ["GUGGACAUAGGAUAGGAUAUAUGAAUAAUUACAUGAGGAUCACCCAUGUCCAUUUAUAUGGGAACAUAGAAGGGUUGUAGUUAAC [Mat - Same state - Malcolm Mod - D131]", "117 nM"],
  ["GAAAAACAUGAGGAUCACCCAUGUGAGAAUAUGGGAGGAUAUUCAAAGACGAAAGUCAAAGAAGAAGGCCUAAAAG [Mat - Same State 1 - Eli mod - 37]", "31.2 nM"],
  ["AAAAAACAUGAGGAUCACCCAUGUAAAAUUAUGGGAGGAUAUGGAAACACGAAAGUGAAACCAGAAGGCCUAAAAG [77%, Mat - Mod of Eli, 11]", "25.1 nM"],
  ["UGGAGACAUGAGGAUCACCCAUGUGAGAAGAGGCGAGGAUAUCGAAAGAAAGAAGAGAAACGAGAAGGCGCGAGAC [salish99-SS1-045]", "25.2 nM"],
  ["AGAAAUAAAAGAGAGGAUAUCCAAAAGAAAACAUGAGGAUCACCCAUGUAAAAGAAAAUAAAAUGGGAGAAGGCUCAAAAUAAAGA [Helter Skelter 2]", "21.6 nM"]
]}

So what does the record say about apparent KD of MS2 coat protein for GAAAUACAUGAGGAUCACCCAUGUUAGGUAAAACAAGGAUAUCUAGAUAAAUAAAAAUAUAGAGAAGGUGUAUAAA [JR_SS001_Sub206] ?
20.6 nM

Report apparent KD of MS2 coat protein for ACAAAACAUGAGGAUCACCCAUGUCGACUAAAUCAAGGAUAUGGGAAUGCGAAAGCAAAGCCAGAAGGUGAGGUCC [Xeorarbiar] please.
294 nM
